System: HSC3
Assay: MTT assay, HSC3 head and neck cancer cells
Type: cell-based
Settings: Homo sapiens, HSC-3, 72 h, HSC3, 1 µM, 72 h; read-out: % cell growth inhibition
# inhibition at 1 µM per record follows
Report as a plain number; the unit % is understood.

Before answering, review these 3 worked examples.
CCOC(=O)c1c(NC(=O)CN2CCN(c3ncccn3)CC2)sc2c1CCN(C(=O)OCC)C2	0
CCOC(=O)c1c(NC(=O)CN2CCN(CC)CC2)sc2c1CCN(C(=O)OCC)C2	3.26
CCOC(=O)c1c(NC(=O)CN2CCN(C)CC2)sc2c1CCN(C(=O)OCC)C2	0

Item: CCOC(=O)c1c(NC(=O)CN2CCOCC2)sc2c1CCN(C(=O)OCC)C2 Test system: HSC3 Read-out: inhibition at 1 µM Value: ? 0
